Tested on: green foxtail
Assay: Test C pre-/postemergence test
Type: in vivo, Setaria viridis
Conditions: 62 g ai/ha, Preemergence; scale 0 to 100
Excerpt: Seeds of plant species selected from blackgrass (Alopecurus myosuroides), downy brome (Bromus tectorum), green foxtail (Setaria viridis), Italian ryegrass (Lolium multiflorum), wheat (Triticum aestivum), wild oat (Avena fatua), catchweed bedstraw (Galium aparine), Russian thistle (Salsola kali), […] […]

compound	Foxtail, Green plant response rating
Cn1nc(C(F)(F)F)c(CS(=O)(=O)c2ccc(Cl)c[n+]2[O-])c1OCC(F)(F)F	70
CCc1cc[n+]([O-])c(S(=O)(=O)Cc2c(C(F)(F)F)nn(C)c2OCC(F)(F)F)c1	100
CCc1cc[n+]([O-])c([S+]([O-])Cc2c(C(F)(F)F)nn(C)c2OC(F)F)c1 (centres unmarked)	95
Cn1nc(C(F)(F)F)c(C[S+]([O-])c2ccc(F)c[n+]2[O-])c1Cl (centres unmarked)	95
Cn1nc(C(F)(F)F)c(CS(=O)(=O)c2cccc[n+]2[O-])c1OCC(F)F	75
